read-out: Thyroid Hormone Responsive (THRSP), THRSP (gene 7069); experiment: LTEA_HepaRG_THRSP: Life Technologies and Expression Analysis (LTEA) Assay for Thyroid Hormone Responsive (THRSP) using HepaRG (AID 2283536); details: mRNA level, 48 h; actives raise or lower the signal
Active and inactive are the calls of the source. How the source made its calls: active means hit-call score of the fitted dose curve at least 0.9, where 1 is the maximum; inactive means score below 0.9.
Result category, one only: active, inactive

Consider the following illustrative entries.
{"columns": ["Compound", "Qualitative Label"],
 "data": [
  ["CCN(CC)CCNc1ccc(CNC=O)c2sc3ccc(OC)cc3c(=O)c12", "active"],
  ["OC1CCC(C2CCCCC2)CC1 (stereo unspecified)", "inactive"],
  ["CCCCOCCO", "inactive"]
]}

input: Answer briefly: the call reported for CCCCCCC(=O)O in this assay.
output: inactive

input: Answer briefly: the call reported for CC(C)CCCCCCOC(=O)CCCCC(=O)OCCCCCCC(C)C in this assay.
output: inactive

====

test: CCTE_Harrill_HTTr_Viability_MCF7: CCTE's 6-hour Cell Viability Assessment for the High-Throughput Transcriptomics (HTTr) Platform, in MCF-7 cells cultured in DMEM + 10% fetal bovine serum, Harrill Lab (AID 2284010)
Activity calls are given as the source filed them. Rule for the calls: active = hit-call score of the fitted dose curve at least 0.9, where 1 is the maximum; inactive = score below 0.9.
Result category, one only: active, inactive

{"columns": ["Compound", "Qualitative Label"],
 "data": [
  ["c1ccc2c(c1)Cc1ccccc1-2", "inactive"],
  ["CC(=O)NC1(c2cccc(F)c2)CCN(CC[C@@]2(c3ccc(Cl)c(Cl)c3)CN(c3ccccc3)C(=O)CO2)CC1", "inactive"],
  ["CCc1nn(C2CCCCC2)c2cc(C3(C#N)CCC(C(=O)O)CC3)ccc12 (stereo not drawn)", "inactive"],
  ["Cc1cc(CCN2CCN(c3nsc4ccccc34)CC2)cc2c1NC(=O)CC2(C)C", "active"],
  ["CC(O)C(=O)O (stereo not drawn)", "inactive"],
  ["c1ccc2cc3c(ccc4ccccc43)cc2c1", "inactive"],
  ["COCC(C)O (stereo not drawn)", "inactive"],
  ["CCCCCCCCCCCCN1CCCC1=O", "inactive"],
  ["Oc1cc2ccccc2c2ccccc12", "active"],
  ["COCC(C)OCC(C)O (stereo not drawn)", "inactive"]
]}

input: Answer briefly: the call reported for C#C[C@]1(O)CC[C@H]2[C@@H]3CCC4=CC(=O)CC[C@@H]4[C@H]3CC[C@@]21C in this assay.
output: inactive

input: Answer briefly: the call reported for CCC(C)(C)C1CCC(O)CC1 (stereo not drawn) in this assay.
output: inactive

input: Answer briefly: the call reported for OCCC(F)(F)C(F)(F)C(F)(F)C(F)(F)C(F)(F)C(F)(F)F in this assay.
output: inactive

====

read-out: urokinase plasminogen activator (uPA), PLAU (gene 5328); assay: BSK_KF3CT_uPA: BioMAP Diversity Plus: KF3CT Assay for urokinase plasminogen activator (uPA) Biomarker Activity (AID 2283075); settings: primary human keratinocytes with fibroblasts; actives raise or lower the signal
The source made the active and inactive calls. How the source made its calls: active means hit-call score of the fitted dose curve at least 0.9, where 1 is the maximum; inactive means score below 0.9.
Parameter Measured: AC50

Examples with answers:
{"columns": ["Mol Smiles", "Reported Value"],
 "data": [
  ["O=C(OCCOCCOC(=O)c1ccccc1)c1ccccc1", "inactive"],
  ["CC#C[C@]1(O)CC[C@H]2[C@@H]3CCC4=CC(=O)CCC4=C3[C@@H](c3ccc(N(C)C)cc3)C[C@@]21C", "inactive"],
  ["COC(=O)CCCCC(=O)OC", "inactive"],
  ["OC1CCCCC1", "inactive"],
  ["C#C[C@]1(O)CC[C@H]2[C@@H]3CCC4=CC(=O)CC[C@@H]4[C@H]3CC[C@@]21C", "inactive"]
]}

input: For the compound shown here, c1ccc2c(c1)Cc1ccccc1-2 , give the reported AC50.
output: inactive

input: For the compound shown here, Oc1cccc(O)c1 , give the reported AC50.
output: inactive

input: For the compound shown here, CCC(=C(c1ccc(O)cc1)c1ccc(OCCN(C)C)cc1)c1ccccc1 , give the reported AC50.
output: 11.8 µM (active)

input: For the compound shown here, c1ccc2cc3c(ccc4ccccc43)cc2c1 , give the reported AC50.
output: inactive

input: For the compound shown here, CCCOc1sc(C(=O)N2CCC(c3cc(CN)ccc3F)CC2)c(C)c1Br , give the reported AC50.
output: 10.2 µM (active)

Values were extracted from PubChem BioAssay (EPA / NIEHS).
